# experimental_target: PPIA (Homo sapiens)
# Construct: Full length PPIA (residues 1-165) with an N-terminal 6×his-yBBR-TEV tag; 6×his-yBBR-TEV (N); made in house; host or cells: E. coli BL21 (DE3) CodonPlus RIPL
# Sequence (P62937 whole entry, the tested form may be a part): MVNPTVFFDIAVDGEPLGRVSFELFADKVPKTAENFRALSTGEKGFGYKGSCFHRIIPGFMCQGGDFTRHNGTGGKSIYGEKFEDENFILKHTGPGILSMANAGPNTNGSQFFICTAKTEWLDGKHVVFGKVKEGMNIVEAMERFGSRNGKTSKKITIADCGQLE
# protocol_notes: Phage Library Screening with NGS, PPIA
# Type: binding
# applied_conditions: target concentration 300
Under this convention, 1 denotes phage screen counts, Target Concentration 300 strictly below 8 and 0 denotes phage screen counts, Target Concentration 300 at or above 8.

Before answering, review these 3 worked examples.
PYDCHIAAWMC
1
DPAAHDCHIAAYWCLNY
0
DPARADCRVAAYWCYHQ
1

Lab log: compare recorded phage screen counts, Target Concentration 300 with 8; is it strictly lower for `PECHVEAYFCE` ?
1

---

// reported interaction data at Target Concentration 300 for each item listed
# experimental_target: FBXW7-SKP1 (Homo sapiens)
# Construct: FBXW7 (Uniprot ID: Q969H0, residues 263-706) with an N-terminal GST-TEV tag and C-terminal AVI tag; GST-TEV (N); made in house; host or cells: E. coli BL21 (DE3)
# Sequence (Q969H0 263-706): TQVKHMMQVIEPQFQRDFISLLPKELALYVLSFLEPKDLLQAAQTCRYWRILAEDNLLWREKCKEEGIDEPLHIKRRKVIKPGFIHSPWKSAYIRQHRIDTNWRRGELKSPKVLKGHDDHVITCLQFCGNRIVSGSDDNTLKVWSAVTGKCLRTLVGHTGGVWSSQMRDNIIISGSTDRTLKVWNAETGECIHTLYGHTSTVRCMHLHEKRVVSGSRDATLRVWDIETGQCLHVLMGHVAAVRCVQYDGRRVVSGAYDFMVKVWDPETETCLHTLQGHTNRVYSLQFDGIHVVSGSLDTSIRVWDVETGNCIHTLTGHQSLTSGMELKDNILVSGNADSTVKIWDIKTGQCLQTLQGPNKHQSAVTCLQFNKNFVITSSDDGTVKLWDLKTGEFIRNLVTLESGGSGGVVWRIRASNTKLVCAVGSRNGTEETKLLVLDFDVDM
# Sequence (P63208 whole entry partner, the tested form may be a part): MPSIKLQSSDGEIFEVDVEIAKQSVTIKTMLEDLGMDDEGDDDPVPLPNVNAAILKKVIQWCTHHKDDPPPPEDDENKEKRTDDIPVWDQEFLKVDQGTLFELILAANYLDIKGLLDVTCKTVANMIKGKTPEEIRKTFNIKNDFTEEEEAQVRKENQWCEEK
# protocol_notes: Naive Library Presenter Screening (phage, NGS), FBXW7-SKP1
# Assay type: binding
# applied_conditions: FBXW7 target concentration 300 nM
Hey, just send me the number, nothing else.

Would you please look over these solved cases?
DPAMTWCLNAAELCEFW
3
DPAAWICEEAAEICEFW
4
DPADMYCRDAAELCEFW
302

Note: attention shifts to another entry.
Which interaction data at Target Concentration 300 reading was recorded for the sequence `DPAYFSCEDAAELCEWY` ?
3

---

# experimental_target: RNF31 PUB domain (Homo sapiens)
# Construct: MBP-TEV (N, cleaved yes); made in house; host or cells: E. coli BL21 (DE3) pLysS
# Sequence (Q96EP0 1-179): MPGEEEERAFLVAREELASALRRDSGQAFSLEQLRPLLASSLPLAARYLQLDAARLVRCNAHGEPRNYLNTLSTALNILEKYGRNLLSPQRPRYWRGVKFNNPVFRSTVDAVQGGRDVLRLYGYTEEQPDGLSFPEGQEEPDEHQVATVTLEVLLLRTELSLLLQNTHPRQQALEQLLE
# protocol_notes: Phage Library Screening with NGS, RNF31 PUB domain
# Type: binding
# applied_conditions: clusters C41-C45; BLANK screen, column 2 of 5
reported_endpoint: Phage library screen NGS readout, BLANK
Hey, just send me the number, nothing else.

Would you please look over these solved cases?
DPAFHDCQFAAAVCSTY
0
DPALEICWDAAIQCSYV
0

Which Phage library screen NGS readout, BLANK reading was recorded for the sequence `DPATEACFDAAIECTYY` ?
0

Which Phage library screen NGS readout, BLANK reading was recorded for the sequence `DPAWTDCDWAALYCDES` ?
0

---

# experimental_target: RNF31 UBA domain (Homo sapiens, UniProt Q96EP0)
# Construct: RNF31 UBA domain protein (residues 480-639) with N-terminal Thioredoxin-TEV-6×his-yBBr-3C tags; Thioredoxin (N, cleaved yes); made in house; host or cells: E. coli BL21 (DE3) pLysS
# Sequence (Q96EP0 480-639): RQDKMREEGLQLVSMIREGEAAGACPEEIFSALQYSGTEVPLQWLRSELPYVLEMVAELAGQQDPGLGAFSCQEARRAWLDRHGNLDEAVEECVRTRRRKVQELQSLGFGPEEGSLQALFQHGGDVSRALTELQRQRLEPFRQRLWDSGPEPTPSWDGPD
# protocol_notes: Phage Library Screening with NGS, RNF31 UBA domain
# Format: binding
# applied_conditions: Target Concentration 10; no competitor
// reported phage screen NGS read-out at Target Concentration 10 for each item listed
Hey, just send me the number, nothing else.

Record lookup: for RNF31 UBA domain (Homo sapiens, UniProt Q96EP0), what phage screen NGS read-out at Target Concentration 10 belongs to `DPAEWLCQMAAHNCIYL` ?
0

Record lookup: for RNF31 UBA domain (Homo sapiens, UniProt Q96EP0), what phage screen NGS read-out at Target Concentration 10 belongs to `DPAHEHCTSAAAWCMLL` ?
0

Record lookup: for RNF31 UBA domain (Homo sapiens, UniProt Q96EP0), what phage screen NGS read-out at Target Concentration 10 belongs to `DPAFSLCVYAAVECDHA` ?
0
